Tested on: Leishmania donovani
Test: Leishmania intramacrophage assay
Assay type: functional, organism-based
Parameters: scale not given: in the data most compounds retested in dose-response had high values
Conditions: 30.3 µM; […]
Among all 69,000 compounds or so, about 1,000 (1.4%) showed an effect of 50% or more. The sample holds strong results, similar compounds and a random draw of the others, so the mix is not that of the screen.
Threshold 40%: Percent Effect strictly smaller gives met, otherwise not met.

Below, 2 compounds whose answers are already recorded.
compound	class
Cc1cccc(C)c1OC1CN(C(=O)C2CC(=O)N(C(C)(C)C)C2)C1 (stereo unspecified)	not met
CC(O)CN1CCC(CNCc2cccc(C(=O)N(C)C)c2)CC1 (stereo unspecified)	met

Confirm or reject: Percent Effect of O=C(NCCCN1CCOCC1)c1ccc(-n2ccc3ccccc32)s1 lies strictly below 40% not met

For CC(O)CN1CCC(CNCc2ccc(C#N)cc2)CC1 (stereo unspecified) , is the recorded Percent Effect below the cut-off of 40%? met

* * *

Tested on: Leishmania donovani
Test: Leishmania intramacrophage assay
Type: functional, organism-based
Design: scale not given: in the data most compounds retested in dose-response had high values
Details: 30.3 µM; […]
About 1,000 (1.4%) of roughly 69,000 compounds showed an effect of 50% or more. For the sample, strong results were picked, then their nearest neighbours and some compounds at random.
Assignment: determine reported Percent Effect for the given molecules.
Give bare numbers, in %.

Previously resolved entries follow.
molecule	target.desc	Percent Effect [%]
NC1CCCCN(Cc2ccccc2CS(=O)(=O)c2ccccc2)C1 (stereo unspecified)	Leishmania donovani	64.11
CC(C)(C)[S+]([O-])CCNC(=O)c1csc(NC2CC2)n1 (stereo unspecified)	Leishmania donovani	-31.46
CC(C)Nc1oc(-c2ccc(S(=O)(=O)N(C)C)o2)nc1C#N	Leishmania donovani	16.53
OC1(CN2CCC(Oc3cccnc3)CC2)CNCCOC1 (stereo unspecified)	Leishmania donovani	-1.613
Cn1cc(-c2cc(-c3cnn(C)c3)n(CC(=O)NC3CC3)n2)cn1	Leishmania donovani	-1.984

Batch: Percent Effect for all items listed.
1. Cc1cnn(CCNCc2ccc(S(C)(=O)=O)cc2)c1
2. CCc1ocnc1C(=O)Nc1ccc2ccn(CCN(C)C)c2c1
3. Cc1[nH]/c(=N\C(=O)c2csc(NC3CCCC3)n2)sc1C
4. CN(Cc1cn(C2CCNCC2)nn1)CC1CCCO1 (stereo unspecified)
5. CNc1oc(-c2ccc(S(=O)(=O)N(C)C)o2)nc1C#N
6. COc1ccc(C2CCCN2c2cnccn2)c(OC)c1 (stereo unspecified)
7. Nc1cc(C(=O)N2CCC(Oc3cccc(C(F)(F)F)c3)CC2)ccn1
8. Cc1sc2c(C3CCNCC3)nc(Nc3cccc(F)c3)n2c1C.Cl

[-1.29, -1.774, 100.1, 7.398, -4.203, 20.05, 3.315, -10.63]

* * *

Test system: Leishmania donovani
Test: Leishmania intramacrophage assay
Format: functional, organism-based
Design: scale not given: in the data most compounds retested in dose-response had high values
Conditions: 30.3 µM; […]
Hit rate of the full screen: of about 69,000 compounds, about 1,000 (1.4%) showed an effect of 50% or more. Shown is part of a subset that was picked to be rich in strong results.
assay.readout: Percent Effect (%)
One number for each entry, in %.

Observe how each entry below is paired with its result.
compound	value
CC(NCC1CCN(CCO)CC1)c1ccc(F)c(Cl)c1 (configuration not stated)	55.27
Cc1nn(C)c(Cl)c1CNCc1cccnc1N1CCCCC1.Cl	-11.04
CC(NCC1CCN(CCO)CC1)c1ccc(C(F)(F)F)cc1 (configuration not stated)	77.37

Hey, quick one: what's Percent Effect for each of these?
1. COC1CCN(CCNC(=O)NC(C)c2cccc(Cl)c2)CC1 (configuration not stated)
2. COCCN1CCC2(CC1)CC(N1CCOCC1)c1ccc(C)cc12.O=C(O)C(F)(F)F.O=C(O)C(F)(F)F (configuration not stated)
3. CC(NCC1CCN(CCO)CC1)c1ccc(Cl)cc1 (configuration not stated)
4. CCS(=O)(=O)N1C[C@@H](c2ccccc2)[C@@]2(CCNC2=O)C1
5. Cc1csc(CCNC(=O)N2CCC(NC(=O)OC(C)(C)C)CC2)n1
6. CCCN(CC(=O)NC)C(=O)c1ccc(-c2nc(C)cs2)cc1
7. O=C(C1CCCC1)N1C[C@@H]2CCN(c3cnccn3)C[C@@H]2C1.O=C(O)C(F)(F)F
8. Cc1ccc(CNC(=O)CNCC2CCN(CCO)CC2)s1

1: 6.711; 2: 56.38; 3: 77.33; 4: 42.69; 5: -5.066; 6: 37; 7: 10.31; 8: 12.94

Report Percent Effect for each item below.
1. CC(C)n1cc(N2Cc3nc(N4CCOCC4)ncc3C2=O)cn1
2. OCCN1CCN(CC(O)c2ccc(C(F)(F)F)cc2)CC1 (configuration not stated)
3. Cn1cc(N2Cc3nc(N4CCOCC4)ncc3C2=O)cn1
4. CC(=O)NCc1cccc(-n2ccnc2-c2cccc(C(=O)O)c2)c1
5. CN1CC(c2cc(O)nc(NCc3ccccc3Cl)n2)CC1=O (configuration not stated)
6. CN(C)CCn1c(=O)n(C)c(=O)c2ccccc21.Cl

1. 32.93
2. 28.06
3. 59.37
4. -4.637
5. 7.659
6. -33.87
